Overview of recorded Kd for various binders
# assayTarget: T1, EsCas13d, nuclease-dead (Eubacterium siraeum, UniProt B0MS50, R295A;H300A;R849A;H854A)
# T1 sequence: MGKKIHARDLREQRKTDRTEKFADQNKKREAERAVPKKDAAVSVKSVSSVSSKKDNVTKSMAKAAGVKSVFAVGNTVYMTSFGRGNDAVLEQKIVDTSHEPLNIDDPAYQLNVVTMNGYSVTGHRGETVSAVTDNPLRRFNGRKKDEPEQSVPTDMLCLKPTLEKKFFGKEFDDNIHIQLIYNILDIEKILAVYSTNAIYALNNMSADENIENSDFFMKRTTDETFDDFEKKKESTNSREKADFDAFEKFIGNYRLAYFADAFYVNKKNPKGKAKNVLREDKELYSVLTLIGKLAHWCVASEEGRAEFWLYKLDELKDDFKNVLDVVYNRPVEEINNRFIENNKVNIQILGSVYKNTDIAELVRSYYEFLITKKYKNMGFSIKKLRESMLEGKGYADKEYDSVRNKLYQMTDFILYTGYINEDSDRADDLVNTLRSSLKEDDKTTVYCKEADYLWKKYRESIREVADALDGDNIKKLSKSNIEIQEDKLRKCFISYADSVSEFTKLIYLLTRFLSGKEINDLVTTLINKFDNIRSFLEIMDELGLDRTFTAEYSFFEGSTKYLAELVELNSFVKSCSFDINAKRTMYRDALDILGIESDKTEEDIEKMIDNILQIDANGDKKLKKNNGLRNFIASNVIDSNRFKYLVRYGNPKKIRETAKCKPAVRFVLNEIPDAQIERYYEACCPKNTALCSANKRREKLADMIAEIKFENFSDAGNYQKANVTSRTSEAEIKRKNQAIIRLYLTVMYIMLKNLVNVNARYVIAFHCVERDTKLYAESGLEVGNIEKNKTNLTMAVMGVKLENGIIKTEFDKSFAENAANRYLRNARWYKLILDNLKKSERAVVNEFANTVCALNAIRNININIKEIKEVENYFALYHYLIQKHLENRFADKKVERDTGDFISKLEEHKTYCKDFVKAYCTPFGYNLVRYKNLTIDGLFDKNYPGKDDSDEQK
# experimentalDetails: crRNA (strand 1, pre-loaded); Mg2+; 40 mM Tris-HCl pH 7.5, 150 mM NaCl, 6 mM MgCl2, 1 mM DTT, 0.1% Tween-20, 0.2 mg/ml BSA; 25 C; 10 min per concentration, then washed
# assayContext: tags: His6-TwinStrep-SUMO cleaved; N-terminal SNAP kept (SNAP-Surface 488); label: 3' end held by stalled T7 RNA polymerase
Give just the number in nM; leave the unit off.

Reference set, count: 3
target 1 insA 3' of 15,insA 3' of 10 (mixed) RNA 1: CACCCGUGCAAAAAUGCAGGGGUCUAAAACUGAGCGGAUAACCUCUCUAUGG RNA 2: GGGAAUGGAUCCACAUCUACGAAUUCGUACCAUAGAGAAGGUUAAUCCGCUCACCGAGAUCGGAAGAGCACACGU; 9.7
target 2 MT 5'PFS GGC 3'PFS UCU (mixed) RNA 1: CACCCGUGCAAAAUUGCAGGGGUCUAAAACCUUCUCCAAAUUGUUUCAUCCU RNA 2: GGGAAUGGAUCCACAUCUACGAAUUCGGCAGGAUGAAACAAUUUGGAGAAGUCUAGAUCGGAAGAGCACACGU; 18.9
target 1 MT 5'PFS CAG 3'PFS AAC (mixed) RNA 1: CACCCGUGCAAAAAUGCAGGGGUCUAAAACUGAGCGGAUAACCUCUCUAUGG RNA 2: GGGAAUGGAUCCACAUCUACGAAUUCCAGCCAUAGAGAGGUUAUCCGCUCAAACAGAUCGGAAGAGCACACGU; 75

From here, focus on the item given below.
### Prompt Which Kd is reported for this binder? target 1 insU 3' of 17,insG 3' of 16 (mixed) RNA 1: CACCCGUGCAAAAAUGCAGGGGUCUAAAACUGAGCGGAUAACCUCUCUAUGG RNA 2: GGGAAUGGAUCCACAUCUACGAAUUCGUACCAUAGUAGGAGGUUAUCCGCUCACCGAGAUCGGAAGAGCACACGU
### Response 44
